assay: Half-life after intravenous administration in female rat; type: ADME, organism-based; settings: in vivo
Assay Readout: half-life (h)
Write the answer as a number in h, unit excluded.

Fill in the blank: the reported half-life of CC#CCC(C)[C@H](O)/C=C/[C@H]1[C@H](O)CC2Oc3c(CCCC(=O)[O-])cccc3[C@@H]21.[Na+] (stereo partly specified) is ____.
3.3

----------
test: Half-life after intravenous administration in male rat; assay type: ADME, organism-based; conditions: in vivo
Assay Readout: half-life (min)
Write the answer as a number in min, unit excluded.

Fill in the blank: the reported half-life of CC#CCC(C)[C@H](O)/C=C/[C@H]1[C@H](O)CC2Oc3c(CCCC(=O)[O-])cccc3[C@@H]21.[Na+] (stereo partly specified) is ____.
25.8

----------
assay: Oral Bioavailability after administration of 10 mg/kg in male rat; format: ADME, organism-based; conditions: in vivo, read-out: Bioavailabiility
Assay Readout: bioavailability (%)
Write the answer as a number in %, unit excluded.

Fill in the blank: the reported bioavailability of O=C(O)COc1cccc2c1CC[C@H](Cn1nc(C(c3ccccc3)c3ccccc3)ccc1=O)C2 is ____.
56

----------
test: Half-life after administration of 3.2 mg/kg intravenously in male rat; format: ADME, organism-based; parameters: dose 3.2 mg/kg, route intravenous; conditions: in vivo, iv
Assay Readout: half-life (min)
Write the answer as a number in min, unit excluded.

Fill in the blank: the reported half-life of O=C(O)COc1cccc2c1CC[C@H](Cn1nc(C(c3ccccc3)c3ccccc3)ccc1=O)C2 is ____.
258
